tested on: MS2 coat protein; assay: apparent KD of MS2 coat protein; designed switch direction (-1 OFF switch, 1 ON switch): 1; higher = weaker reporter binding; details: input ligand: none
Please enter 1 where apparent KD of MS2 coat protein is greater than or equal to 100 nM, and 0 where it is lower.

| SEQUENCE_STRING | CAT |
| --- | --- |
| GGAGCCAAGGCAGGAUAUUCAUAUAAAUAAACAUGAGGAUCACCCAUGUAGGCCAGAAGGCCUUGGGAGAAGGGCCAUGGCUCG [Xeonanis - 13 mod6] (Eterna round: R96, puzzle: Same State NG 2) | 1 |

Task: Given AUAAAACACAUGAGGAUCACCCAUGUGGCCGUAGUCGGCACACAGGAUAUCAAGCAACUAGAGCUUGAGAAGGGUGAGACAAAA [Raar] (Eterna round: R96, puzzle: Same State NG 3) , state whether its apparent KD of MS2 coat protein is at least 100 nM.
Result: 1

Task: Given GGAGCCGGCACUGAGGAUAUUCAUAUUAAAACAUGAGGAUCACCCAUGUAGGCCAGAAGGCCUUGGGAGAAGGCAGGUCGGCUCG [salish99_ss2_r3_075] (Eterna round: R96, puzzle: Same State 2) , state whether its apparent KD of MS2 coat protein is at least 100 nM.
Result: 1

Task: Given GAGUGGUAAAGAGGAUAUGCAUUGUUAUUCACUGUAGAAGGUUUUAACAUGAGGAUCACCCAUGUAGGACUAUUCCUGUGUUUC [Parity 63 - Jieux - Same State NG 1] (Eterna round: R96, puzzle: Same State NG 1) , state whether its apparent KD of MS2 coat protein is at least 100 nM.
Result: 0

Task: Given UUAACAUGAGGAUCACCCAUGUAUGCGUUGCUUGCAUUUUGACAGGAUAUUGUUUAUCCAUAUAGCAAGAAGGGUCGUUAGUCU [JR_SSNG3_Sub010] (Eterna round: R96, puzzle: Same State NG 3) , state whether its apparent KD of MS2 coat protein is at least 100 nM.
Result: 0

Task: Given GCAAUGGCGGUAGGAUAUCUAGGAUAUGGGAAAGACUAAGUCUGUAGGUCACCUAACCCAGAAGGAGAGAAGGACCCUGUAAGG [pwkr ssNG2 2FMN + F9.24] (Eterna round: R96, puzzle: Same State NG 2) , state whether its apparent KD of MS2 coat protein is at least 100 nM.
Result: 0

Task: Given UUUGCAUGACGAGGAUAUCAUUUAUUUCUUGAUUGAGAAGGCGUUUUUUUUAUUACCUAACAUGAGGAUCACCCAUGUGACAGU [JR_SSNG1_Sub045] (Eterna round: R96, puzzle: Same State NG 1) , state whether its apparent KD of MS2 coat protein is at least 100 nM.
Result: 0

Task: Given CAUCGUUUGAUAGGAUAUCGCUAUACAUGAGGAUCACCCAUGUUUACCACGCUGGUUUUUCAUACCGAGAAGGAUUCUGAUGAC [salish99_SSNG02_r04_014] (Eterna round: R96, puzzle: Same State NG 2) , state whether its apparent KD of MS2 coat protein is at least 100 nM.
Result: 0

Task: Given GUGGCGGGUUGAGGAUAUUGGUUGCAUAUGUUUAACAUGAGGAUCACCCAUGUGGGUUGCGGUUUCGAGAAGGUAGGUUGCUGG [salish99_SSNG2_r04_044] (Eterna round: R96, puzzle: Same State NG 2) , state whether its apparent KD of MS2 coat protein is at least 100 nM.
Result: 1

* * *

Reported apparent KD of MS2 coat protein values are given for each entry in this list.
tested on: MS2 coat protein; test: apparent KD of MS2 coat protein; designed switch direction (-1 OFF switch, 1 ON switch): -1; higher = weaker reporter binding; conditions: Eterna round: R95; input ligand: microRNA oligo, concentration not stated
Please reply with the bare figure in nM and do not write the unit itself.

Some solved cases for reference:
| SEQUENCE_STRING | UNIT_ANNOTATION | OBSERVED_RESULT |
| --- | --- | --- |
| GAGUGACAUGAGGAUCACCCAUGUGAGGAUAUCGGACGGACCAAAUUAACAAUAAAUGCGAGAAGGCACAUCGG [Exclusion 1 V13] (puzzle: Exclusion 1) | nM | 55.4 |
| UUUUUUGUAGUGAGGAUAUCGUUGUGGAUGUGGAUCGAGAAGGCACAUGAGGAUCACCCAUGUUAGUUGUGGUU [JR_BMOE4_Sub084] (puzzle: Brourd's mod of Exclusion 4) | nM | 188 |

Then this sequence:
Task: Read the entry CAUGAUCUUCGGAUCAUGUACAUGAGGAUCACCCAUGUGACGAGUUGAUCCUCAUACAAGCUUUUUGCUCGUCUUAU [Sensor v3 - Turn-off variant 1 - 15] (puzzle: Sensor v3, turn-off variant 1) and write its reported apparent KD of MS2 coat protein.
Result: 16.7

* * *

Reported apparent KD of MS2 coat protein values are given for each entry in this list.
test system: MS2 coat protein; test: apparent KD of MS2 coat protein; designed switch direction (-1 OFF switch, 1 ON switch): -1; higher = weaker reporter binding; details: input ligand: FMN 200 uM
Please reply with the bare figure in nM and do not write the unit itself.

Some solved cases for reference:
| SEQUENCE_STRING | STUDY_TARGET | apparent KD of MS2 coat protein [nM] |
| --- | --- | --- |
| GGUGAGCUAGGAUAUGCUUUGGGCUCGCUUUCCUUCGAUUUACUUGAGGAUCACCCAAGUAGAAGGAGCUUGCC [salish99_ex2_r4_035] (Eterna round: R97, puzzle: Exclusion 2) | MS2 coat protein | 13.5 |
| CCCGGGUCUGCAGGAUAUUCGAAAGCAGGUCAAAGGUCACAUGAGGAUCACCCAUGUAGUUUAACGAAGAAGGGUGUCGCCCGU [Eternabot solution 38] (Eterna round: R96, puzzle: Exclusion NG 2) | MS2 coat protein | 168 |
| AGUUAGAUAGGAUAUGCCCGAGAUAACAUGAGGAUCACCCAUGUGACCGAAUCUAUUCUAGCAGAAGGGUUUAUGA [Mod of ViennaUCT 19 - Jieux - Exclusion 5] (Eterna round: R97, puzzle: Exclusion 5) | MS2 coat protein | 40.2 |
| CAUCUGUGAGGAUAUGGUGAGUAGUGCCUGAGCGCUGCUCACCAGAAGGCACAUGAGGAUCACCCAUGUAUGAC [JL-ex4-2.01 denovo] (Eterna round: R96, puzzle: Exclusion 4) | MS2 coat protein | 319 |
| AACAAGUCAGGAUAUGCCCUGAUAGACUUGAGGAUCACCCAAGUAAGUCUAUCUGGCUAAGCAGAAGGGACAAAAG [Usrabe] (Eterna round: R97, puzzle: Exclusion 5) | MS2 coat protein | 643 |

Task: Return reported apparent KD of MS2 coat protein for target or system MS2 coat protein, item GGAGCCUUAGGAUAUACAUGAGGAUCACCCAUGUGAUGUCGAAGCAAGGGUCUCCUAGGUAGAAGGAAGACAAU [Eternabot (L1) Solution 90] (Eterna round: R97, puzzle: Exclusion 3) .
Result: 19.4

Task: Return reported apparent KD of MS2 coat protein for target or system MS2 coat protein, item CUUCUCUCAUGGAAUCCUGACAUGAGGAUCACCCAUGUUGCUGAGGAUAUCCAGCGCUACGGCGCGGAGAAGGCGGCUCUUAAA [Enties] (Eterna round: R96, puzzle: Exclusion NG 3) .
Result: 12.9

Task: Return reported apparent KD of MS2 coat protein for target or system MS2 coat protein, item ACAGUUUUGCAAGGAUAUCGUUUUAGUUUAUUACGAGAAGGUGCUUAAGUAAUUUCUUUGGGUUGACAUGAGGAUCACCCAUGU [JR_ExcNG1_Sub058] (Eterna round: R96, puzzle: Exclusion NG 1) .
Result: 160

Task: Return reported apparent KD of MS2 coat protein for target or system MS2 coat protein, item UAUUAGCAAGCGAGAUCCCACAUGAGGAUCACCCAUGUGCAUCCAGAAUUACUGGGUGCAAAAGCUCGUCUUAUAUA [Winner reversed engineered 2] (Eterna round: R97, puzzle: Sensor, turn-off variant 1) .
Result: 62.4

Task: Return reported apparent KD of MS2 coat protein for target or system MS2 coat protein, item CGCAUGUGAGGAUAUGUACUAGUUGAGCACAGUCAGCCAGAACAGAAGGCACAUGAGGAUCACCCAUGUGUACC [EX4 B.7] (Eterna round: R97, puzzle: Exclusion 4) .
Result: 154

* * *

test system: MS2 coat protein; test: apparent KD of MS2 coat protein; higher = weaker reporter binding; conditions: Eterna round: R107; input ligand: none
ASSAY_ENDPOINT: apparent KD of MS2 coat protein (µM)
Please reply with the bare figure in µM and do not write the unit itself.

Task: Read the entry GGACUAACCAGAAGGAGCGGCACGCAGAAACUGCAAUUUCCUCCACACGAGGAUCACCCGUGUCAGGUAGGUCGCUGGUUAGUCG [ArgBX 29] and write its reported apparent KD of MS2 coat protein.
Result: 0.0227

Task: Read the entry AGUCUUAAUGGAAGGAGCGCAGUCAUAACAUGAGGAUCACCCAUGUCGAGGUGAGGGUCAUUGCAGGUAGGUCGCCAUACUAGGA [Same State - Arginine B (Freestyle 2)] and write its reported apparent KD of MS2 coat protein.
Result: 0.181

Task: Read the entry GCCAUCGGCGGAAGCCGAUGGGAUACAGAAGGAGCGUGGAUUAACACAGGUAGGUCGCUGGACAUGAGGAUCACCCAUGUAAUAG [SSAA #8] and write its reported apparent KD of MS2 coat protein.
Result: 0.0262
